Test: Oral bioavailability in rat
Format: ADME, organism-based
Settings: in vivo
assay-endpoint: bioavailability (%)
Please state the figure in %; there is no need to write the unit.

For this molecule ( CN1C(=O)CCC1c1cc2[nH]c(-c3ccccn3)cc2cc1Oc1ccc(S(C)(=O)=O)nc1 (single isomer, unassigned; ent-1) ), measured bioavailability is 30

###

Target: Hexokinase-4 (Rattus norvegicus, UniProt P17712)
Sequence (P17712 whole entry): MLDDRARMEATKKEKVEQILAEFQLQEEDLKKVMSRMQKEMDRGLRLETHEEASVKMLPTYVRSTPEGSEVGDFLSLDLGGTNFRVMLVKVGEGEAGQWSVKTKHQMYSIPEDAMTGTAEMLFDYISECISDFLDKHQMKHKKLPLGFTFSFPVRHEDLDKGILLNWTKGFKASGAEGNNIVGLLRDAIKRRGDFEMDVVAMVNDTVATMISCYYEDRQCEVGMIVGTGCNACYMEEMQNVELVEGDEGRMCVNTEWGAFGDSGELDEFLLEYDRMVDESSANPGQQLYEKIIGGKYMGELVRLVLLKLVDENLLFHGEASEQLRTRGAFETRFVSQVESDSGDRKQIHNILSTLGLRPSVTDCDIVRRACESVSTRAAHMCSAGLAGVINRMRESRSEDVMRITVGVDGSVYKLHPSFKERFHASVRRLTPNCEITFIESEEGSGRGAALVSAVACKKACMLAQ
Assay: Activation of glucokinase in rat INS-1 cells assessed as increase in D-2-deoxyglucose-6-phosphate level in presence of D-2-deoxyglucose by HILIC LC-MS method
Assay type: cell-based
Give measured pEC50 for each item. Keep answers brief.
Conceptually, pEC50 converts a concentration in mol/L into minus its log10.

Note to self: pEC50 recorded for Cc1cnc(-c2cc3cc(Oc4ccc(S(C)(=O)=O)nc4)c(C4CCC(=O)N4C)cc3[nH]2)s1 (stereo in doubt; 2-en) was 7.43

So, CN1C(=O)CCC1c1cc2[nH]c(-c3ccc(C(F)(F)F)cn3)cc2cc1Oc1ccc(C(=O)O)cc1 (configuration not stated) ? Its pEC50 was 5.68

Documented pEC50 of CN1C(=O)CCC1c1cc2[nH]c(-c3cnccn3)cc2cc1Oc1ccc(S(C)(=O)=O)nc1 (stereo in doubt; 3-en) : 6.61

The compound listed as CN1C(=O)CCC1c1cc2[nH]c(-c3ccccn3)cc2cc1Oc1ccc(S(C)(=O)=O)nc1 (single isomer, unassigned; ent-1) has a reported pEC50 of 9.05

Lab book: pEC50 of CN1C(=O)CCC1c1cc2[nH]c(-c3ccc(C(C)(C)O)cn3)cc2cc1Oc1ccc(S(C)(=O)=O)nc1 (stereo in doubt; 4) noted as 8.41

Kindly note the recorded pEC50 for CCOC(=O)c1ccc(Oc2cc3cc(-c4ccc(C(F)(F)F)cn4)[nH]c3cc2C2CCC(=O)N2C)cc1 (configuration not stated) , which is 7.66

For this compound ( CN1C(=O)CCC1c1cc2[nH]c(-c3ccc(C(F)(F)F)cn3)cc2cc1Oc1ccc(S(C)(=O)=O)nc1 (single isomer, unassigned; ent-2) ), measured pEC50 is 6.43

###

Assay: Unbound fraction in C57BL/6 mouse plasma
Format: ADME, cell-free
assay-endpoint: fraction unbound

Data point: CN1C(=O)CCC1c1cc2[nH]c(-c3ccccn3)cc2cc1Oc1ccc(S(C)(=O)=O)nc1 (single isomer, unassigned; ent-1) ; fraction unbound = 0.072

###

Record form. Attribute: EC50. Fill in for each entry.
Molecular target: Hexokinase-4 (Rattus norvegicus)
Sequence (P17712 whole entry): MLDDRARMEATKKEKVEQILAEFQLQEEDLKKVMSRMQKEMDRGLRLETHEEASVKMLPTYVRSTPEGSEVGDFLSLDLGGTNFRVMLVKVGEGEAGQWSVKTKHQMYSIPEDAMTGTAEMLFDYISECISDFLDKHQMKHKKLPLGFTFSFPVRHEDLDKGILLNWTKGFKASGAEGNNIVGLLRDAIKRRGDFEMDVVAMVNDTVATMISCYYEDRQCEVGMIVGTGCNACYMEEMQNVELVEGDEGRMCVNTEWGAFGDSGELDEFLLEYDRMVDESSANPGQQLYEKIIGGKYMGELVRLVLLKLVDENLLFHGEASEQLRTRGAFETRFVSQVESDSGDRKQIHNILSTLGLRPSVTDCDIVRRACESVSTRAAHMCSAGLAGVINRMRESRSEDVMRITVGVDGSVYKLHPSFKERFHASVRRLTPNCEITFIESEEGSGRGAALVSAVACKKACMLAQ
Experiment: Activation of glucokinase in rat INS-1 cells assessed as increase in D-2-deoxyglucose-6-phosphate level in presence of D-2-deoxyglucose by HILIC LC-MS method
Format: cell-based

EC50 reported for this molecule CN1C(=O)CCC1c1cc2[nH]c(-c3ccc(C(C)(C)O)cn3)cc2cc1Oc1ccc(S(C)(=O)=O)nc1 (stereo in doubt; 4-en) : 38 nM

Record CCS(=O)(=O)c1ccc(Oc2cc3cc(-c4ccc(C(F)(F)F)cn4)[nH]c3cc2C2CCC(=O)N2C)cc1 (configuration not stated) , field EC50: 1.7 nM

The molecule identified as CN1C(=O)CCC1c1cc2[nH]c(-c3ccccn3)cc2cc1Oc1ccc(S(C)(=O)=O)nc1 (stereo in doubt; 1-en) registered its EC50 at 33 nM

Given item Cc1cnc(-c2cc3cc(Oc4ccc(S(C)(=O)=O)nc4)c(C4CCC(=O)N4C)cc3[nH]2)s1 (single isomer, unassigned) , the value recorded as its EC50 is 21 nM

get_value(item= CN1C(=O)CCC1c1cc2[nH]c(-c3ccc(C(F)(F)F)cn3)cc2cc1Oc1ccc(S(C)(=O)=O)nc1 (stereo in doubt; 5) , readout=EC50) returns 2.5 nM

Form field EC50, entry CN1C(=O)CCC1c1cc2[nH]c(-c3cnccn3)cc2cc1Oc1ccc(S(C)(=O)=O)nc1 (stereo in doubt; 3) : 7.2 nM

COC(=O)c1ccc(-c2cc3cc(Oc4ccc(S(C)(=O)=O)nc4)c(C4CCC(=O)N4C)cc3[nH]2)nc1 (racemic) yielded EC50 of 7.8 nM

###

Test: Half life in rat
Format: ADME
Details: in vivo
assay-endpoint: half-life (h)
Give just the number in h; leave the unit off.

Quick note, half-life for CN1C(=O)CCC1c1cc2[nH]c(-c3ccccn3)cc2cc1Oc1ccc(S(C)(=O)=O)nc1 (single isomer, unassigned; ent-1) landed at 2.8

###

Target: Hexokinase-4 (Rattus norvegicus)
Sequence (P17712 whole entry): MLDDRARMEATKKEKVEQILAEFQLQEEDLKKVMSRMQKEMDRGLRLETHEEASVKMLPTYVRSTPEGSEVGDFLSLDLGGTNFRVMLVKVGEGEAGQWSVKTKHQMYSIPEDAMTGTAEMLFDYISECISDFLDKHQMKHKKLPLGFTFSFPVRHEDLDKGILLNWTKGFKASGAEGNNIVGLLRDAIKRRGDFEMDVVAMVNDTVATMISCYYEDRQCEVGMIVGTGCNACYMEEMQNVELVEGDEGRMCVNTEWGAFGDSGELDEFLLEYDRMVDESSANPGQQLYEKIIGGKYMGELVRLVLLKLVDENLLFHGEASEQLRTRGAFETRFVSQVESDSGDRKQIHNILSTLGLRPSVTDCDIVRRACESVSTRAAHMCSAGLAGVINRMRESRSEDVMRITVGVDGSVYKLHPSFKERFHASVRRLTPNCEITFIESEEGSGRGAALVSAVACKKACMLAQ
Assay: Activation of glucokinase in primary rat hepatocytes assessed as increase in D-2-deoxyglucose-6-phosphate level in presence of D-2-deoxyglucose by HILIC LC-MS method
Assay type: cell-based
Kindly supply the reported pEC50 values for the records listed here.
Just the number, please; pEC50 means minus log10 of the concentration in mol/L.

Item: CN1C(=O)CCC1c1cc2[nH]c(-c3ccc(C(C)(C)O)cn3)cc2cc1Oc1ccc(S(C)(=O)=O)nc1 (stereo in doubt; 4) | System: Hexokinase-4 (Rattus norvegicus) | pEC50: 8.28

So the reported pEC50 for CN1C(=O)CCC1c1cc2[nH]c(-c3ccc(C(F)(F)F)cn3)cc2cc1Oc1ccc(C(=O)O)cc1 (configuration not stated) , on Hexokinase-4 (Rattus norvegicus), turned out to be 6.14

The observed pEC50 for CCOC(=O)c1ccc(Oc2cc3cc(-c4ccc(C(F)(F)F)cn4)[nH]c3cc2C2CCC(=O)N2C)cc1 (configuration not stated) when tested with Hexokinase-4 (Rattus norvegicus) stands at 6.63

Tested on Hexokinase-4 (Rattus norvegicus), the item CN1C(=O)CCC1c1cc2[nH]c(-c3ccc(C(F)(F)F)cn3)cc2cc1Oc1ccc(S(C)(=O)=O)nc1 (single isomer, unassigned; ent-2) showed pEC50 equal to 6.70

# lookup: CCS(=O)(=O)c1ccc(Oc2cc3cc(-c4ccc(C(F)(F)F)cn4)[nH]c3cc2C2CCC(=O)N2C)cc1 (configuration not stated) on Hexokinase-4 (Rattus norvegicus), pEC50 = 6.76

Log: Hexokinase-4 (Rattus norvegicus), molecule Cc1cnc(-c2cc3cc(Oc4ccc(S(C)(=O)=O)nc4)c(C4CCC(=O)N4C)cc3[nH]2)s1 (stereo in doubt; 2-en) , pEC50 = 7.11

Note to self: pEC50 of CN1C(=O)CCC1c1cc2[nH]c(-c3ccccn3)cc2cc1Oc1ccc(S(C)(=O)=O)nc1 (stereo in doubt; 1-en) with Hexokinase-4 (Rattus norvegicus) was 7.03

meta.source: ChEMBL document CHEMBL4014285
